protocol-details: Differential scanning calorimetry (VP-DSC) of DSPC liposomes (MLVs) with drugs
Format: physicochemical
run-parameters: pH 7.0; drug-to-lipid mole ratio 1:5; scan 20° C./hour
quantity-kind: Tm

{"smiles": "COc1cccc2c1C(=O)c1c(O)c3c(c(O)c1C2=O)C[C@@](O)(C(=O)CO)C[C@@H]3O[C@H]1C[C@H](N)[C@H](O)[C@H](C)O1", "quantity-kind": "Tm", "result": "54.45 C."}
{"smiles": "CC(=O)O[C@H]1C(=O)[C@@]2(C)[C@H]([C@H](OC(=O)c3ccccc3)[C@]3(O)C[C@H](OC(=O)[C@H](O)[C@@H](NC(=O)c4ccccc4)c4ccccc4)C(C)=C1C3(C)C)[C@]1(OC(C)=O)CO[C@@H]1C[C@@H]2O", "quantity-kind": "Tm", "result": "54.07 C."}
{"smiles": "CC[C@]1(O)C[C@H]2CN(CCc3c([nH]c4ccccc34)[C@@](C(=O)OC)(c3cc4c(cc3OC)N(C=O)[C@H]3[C@@](O)(C(=O)OC)[C@H](OC(C)=O)[C@]5(CC)C=CCN6CC[C@]43[C@@H]65)C2)C1", "quantity-kind": "Tm", "result": "53.93 C."}
{"smiles": "CC[C@@]1(O)C(=O)OCc2c1cc1n(c2=O)Cc2c-1nc1ccccc1c2CCNC(C)C", "quantity-kind": "Tm", "result": "54.43 C."}
